assay: GHS categories as the set defines them, by LD50: 1 up to 5, 2 up to 50, 3 up to 300, 4 up to 2000, 5 above 2000 mg/kg; settings: rat; in vivo; po
Measured GHS category of individual entries
Answer with a bare number; do not write a unit.

# example entries with known answers
[
  {
    "compound": "CCC=CCC(C)OC(=O)c1ccccc1O (stereo unspecified)",
    "GHS category": 5
  },
  {
    "compound": "O=S(=O)(O)Cc1ccccc1",
    "GHS category": 4
  },
  {
    "compound": "CC(C)(C)OOC(C)(C)c1ccc(C(C)(C)OOC(C)(C)C)cc1",
    "GHS category": 5
  },
  {
    "compound": "CN[C@H](CC(N)=O)C(=O)NC(=O)[C@@H](N[C@@H]1C(=O)N2C1SC(C)(C)[C@@H]2C(=O)O)c1ccc(O)cc1 (stereo partly specified)",
    "GHS category": 5
  },
  {
    "compound": "CCOC(C)OCCc1ccccc1 (stereo unspecified)",
    "GHS category": 5
  }
]

Now look at this entry.
For the compound `CCCCC(=O)N(Cc1ccc(-c2ccccc2-c2nnn[nH]2)cc1)[C@@H](C(=O)O)C(C)C` , what GHS category is on record?
5

###

experiment: GHS categories as the set defines them, by LD50: 1 up to 5, 2 up to 50, 3 up to 300, 4 up to 2000, 5 above 2000 mg/kg; settings: rat; in vivo; po
Measured GHS category of individual entries

# example entries with known answers
[
  {
    "molecule": "COc1cc(C=CC(=O)CC(=O)C=Cc2ccc(O)c(OC)c2)ccc1O",
    "GHS category": 5
  },
  {
    "molecule": "O=S(=O)(O)c1cc(-n2nc3ccc4ccccc4c3n2)ccc1C=Cc1ccccc1",
    "GHS category": 5
  },
  {
    "molecule": "CCCCCCCCCCCCCCCOS(=O)(=O)O",
    "GHS category": 5
  },
  {
    "molecule": "CC1CC(OC(=O)COc2ccc(Cl)cc2)CC(C)(C)C1 (stereo unspecified)",
    "GHS category": 5
  },
  {
    "molecule": "O=C1Nc2ccccc2OC1(c1ccc(O)cc1)c1ccc(O)cc1",
    "GHS category": 5
  }
]

For the molecule COCC1COC(Cn2cncn2)(c2cc3cc(Cl)cc(Cl)c3o2)O1 (stereo unspecified) , what GHS category is on record?
4

Consider next the molecule CCCCOC(=O)C1C(C(=O)OCCCC)C2(Cl)C(Cl)=C(Cl)C1(Cl)C2(Cl)Cl (stereo unspecified) in the same way.
5

Consider next the molecule `CS(=O)(=O)OC[C@@H](OS(C)(=O)=O)[C@@H](O)[C@H](O)[C@@H](COS(C)(=O)=O)OS(C)(=O)=O` in the same way.
5

###

test: GHS categories as the set defines them, by LD50: 1 up to 5, 2 up to 50, 3 up to 300, 4 up to 2000, 5 above 2000 mg/kg; details: rat; in vivo; po
recordedMetric: GHS category

For the compound COc1ccc2c(c1)CCN(c1ccccc1)C2c1ccccc1OC (centres undefined) , what GHS category is on record?
4

Consider next the compound O=C1CN2CCOC2(c2ccccc2F)c2cc(Cl)ccc2N1CCO (centres undefined) in the same way.
5

Consider next the compound `CCCCCBr` in the same way.
5

Consider next the compound `Cc1ccnc(N)c1` in the same way.
4

###

assay: GHS categories as the set defines them, by LD50: 1 up to 5, 2 up to 50, 3 up to 300, 4 up to 2000, 5 above 2000 mg/kg; conditions: rat; in vivo; po
Measured GHS category of individual entries
Answer with a bare number; do not write a unit.

# example entries with known answers
[
  {
    "compound": "O=C(CC(=O)c1ccccc1)c1ccccc1",
    "GHS category": 5
  },
  {
    "compound": "CNC(=O)Nc1ccc(Cl)c(Cl)c1",
    "GHS category": 4
  },
  {
    "compound": "COc1ccc(OC)c(C=O)c1",
    "GHS category": 5
  },
  {
    "compound": "CCCCCCCCCCCCCCCCCCOCCC[N+](C)(C)C",
    "GHS category": 4
  },
  {
    "compound": "CC(C)(C)C1CCC(OC(=O)OOC(=O)OC2CCC(C(C)(C)C)CC2)CC1 (centres undefined)",
    "GHS category": 5
  }
]

For the compound `NC(N)=O` , what GHS category is on record?
5

Consider next the compound `O=P(O)(O)c1ccccc1` in the same way.
5

Consider next the compound `CCCc1nc2ccnn2c(CCC)c1Cc1ccc(-c2ccccc2-c2nn[nH]n2)cc1` in the same way.
4

Consider next the compound `CCn1ccc(=O)n2nc(-c3cccs3)cc12` in the same way.
4

Consider next the compound CC1(C)CCC(=Cc2ccc(Cl)cc2)C1(O)Cn1cncn1 (centres undefined) in the same way.
5

Consider next the compound `COc1ccccc1N1CCN(/C(=N\CC(C)C)Nc2ccc(Cl)c(Cl)c2)CC1` in the same way.
4

Consider next the compound `Clc1ccc2oc(C3(Cn4ccnc4)OCCO3)cc2c1` in the same way.
4

Consider next the compound C=CC(C)(O)CC/C=C(\C)CC/C=C(\C)CCC=C(C)C (centres undefined) in the same way.
5

Consider next the compound `C[C@H]1c2cccc(O)c2C(=O)C2=C(O)[C@]3(O)C(=O)C(C(N)=O)=C(O)[C@@H](N(C)C)[C@@H]3[C@@H](O)[C@@H]21` in the same way.
5

Consider next the compound CCCCCCCCCCCCCCCCCNP1(=S)OCc2cc([N+](=O)[O-])ccc2O1 (centres undefined) in the same way.
3

###

assay: GHS categories as the set defines them, by LD50: 1 up to 5, 2 up to 50, 3 up to 300, 4 up to 2000, 5 above 2000 mg/kg; details: rat; in vivo; po
Measured GHS category of individual entries
Answer with a bare number; do not write a unit.

[
  {
    "compound": "CNc1ncnc2c1ncn2Cc1ccccc1F",
    "GHS category": 4
  },
  {
    "compound": "COc1cc(C(=O)OCCCNCCC(c2ccccc2)c2ccccc2)cc(OC)c1OC",
    "GHS category": 5
  },
  {
    "compound": "CCS(=O)(=O)CCC(=O)NNC(=O)N1Cc2ccccc2Oc2ccc(Cl)cc21",
    "GHS category": 5
  }
]

For the compound CC(C)=CCN(CC=C(C)C)CCC(C#N)(Cc1cccc2ccccc12)C(C)C (configuration not stated) , what GHS category is on record?
4

Consider next the compound `COc1nc(Nc2ccc(C=Cc3ccc(Nc4nc(OC)nc(N(CCO)CCO)n4)cc3S(=O)(=O)O)c(S(=O)(=O)O)c2)nc(N(CCO)CCO)n1` in the same way.
5

Consider next the compound `CCCCCCCCCCCCCCCCCCOC(=O)CCSCCC(=O)OCCCCCCCCCCCCCCCCCC` in the same way.
5

Consider next the compound `CC(C)c1ccc(C(C)(C)C(C)(C)c2ccc(C(C)C)cc2)cc1` in the same way.
5

Consider next the compound `CCCCCCCCCCCCCCCCCCCCCCc1ccccc1` in the same way.
5

Consider next the compound CCCCCCCCCC(C)C(OC)OC (configuration not stated) in the same way.
5

Consider next the compound `CCCCCC=CCC=CCC=CCC=CCCCC(=O)OCC` in the same way.
5

Consider next the compound `CCCCCCCCCCCCCCCC(=O)NCC(=O)O` in the same way.
5

###

Assay: rat acute oral toxicity
Conditions: in vivo
Text: […]The data set underlying the modeling effort for this project was initially compiled by NICEATM and U.S. EPA’s CCTE. Briefly, LD50 data were collected from rat acute oral systemic toxicity tests, including limit tests, ranges/confidence intervals, and discrete LD50 values. The full data set included 21,200 LD50 entries for 15,688 substances. […]
recordedMetric: LD50 (mg/kg)
Reply with just the number (in mg/kg).

# example entries with known answers
[
  {
    "compound": "CC(C)(C)CC(C)(C)c1ccc(OCCO)cc1",
    "LD50, mg/kg": 1800
  },
  {
    "compound": "CN",
    "LD50, mg/kg": 80
  },
  {
    "compound": "CC(=O)N[C@@H](CS)C(=O)O",
    "LD50, mg/kg": 3000
  },
  {
    "compound": "CC(CCl)OC(C)CCl (stereo not given)",
    "LD50, mg/kg": 240
  }
]

Now look at this entry.
For the compound Clc1ccc(C2(Cn3cncn3)CC(Br)CO2)c(Cl)c1 (stereo not given) , what LD50 is on record?
328
